Taken from ChEMBL document CHEMBL5724914.

- assay conditions: human gut metagenome, 24 h, 2 µM; note: call rule not given here
reported endpoint: Bacterial Biotransformation

• CCN(CC)CCOCCOC(=O)C1(c2ccccc2)CCCC1.O=C(O)CC(O)(CC(=O)O)C(=O)O [CARBETAPENTANE CITRATE] = Compound metabolized
• COC(=O)C1=C(C)NC(C)=C(C(=O)OC(C)C)C1c1cccc2nonc12 (stereo not drawn) = Compound metabolized
• COc1cc2nc(N3CCN(C(=O)c4ccco4)CC3)nc(N)c2cc1OC = Compound NOT metabolized
• CCN(CC)C(C)CN1c2ccccc2Sc2ccccc21 (stereo not drawn) = Compound metabolized
• COc1cc2nc(N(C)CCCNC(=O)C3CCCO3)nc(N)c2cc1OC (stereo not drawn) = Compound metabolized
• CCCCCCOC(=O)/N=C(/N)c1ccc(NCc2nc3cc(C(=O)N(CCC(=O)OCC)c4ccccn4)ccc3n2C)cc1.CS(=O)(=O)O [DABIGATRAN ETEXILATE MESYLATE] = Compound NOT metabolized
• O=c1[nH]c2ccccc2n1C1CCN(CCCC(c2ccc(F)cc2)c2ccc(F)cc2)CC1 [PIMOZIDE] = Compound metabolized
• O=C(O)COCCN1CCN(C(c2ccccc2)c2ccc(Cl)cc2)CC1 (stereo not drawn) = Compound metabolized

* * *

- experiment: The drug is tested on WLS-370 corresponding to human gut metagenome with ENA study accession number: PRJEB37062 and ENA sample accession number: ERS12561793 for biotransformation under anaerobic condition. The drug concentrations were measured over 9 timepoints collected between 0 and 24 hours of incubation by liquid-chromatography-coupled mass spectrometry (LC–MS)
- assay conditions: 2 µM
reported endpoint: Bacterial Biotransformation

* CN1C(=O)CCS(=O)(=O)C1c1ccc(Cl)cc1 (centres undefined) | Compound NOT metabolized
* Fc1ccc([C@@H]2CCNC[C@H]2COc2ccc3c(c2)OCO3)cc1 | Compound metabolized
* CCN(CC)CCOCCOC(=O)C1(c2ccccc2)CCCC1.O=C(O)CC(O)(CC(=O)O)C(=O)O [CARBETAPENTANE CITRATE] | Compound metabolized
* CC(C)OC(=O)C(C)(C)Oc1ccc(C(=O)c2ccc(Cl)cc2)cc1 [FENOFIBRATE] | Compound metabolized
* CN(C)CCC=C1c2ccccc2C=Cc2ccccc21 | Compound metabolized
* C[C@@H]1CC[C@H]2[C@@H](C)C(=O)O[C@@H]3O[C@@]4(C)CC[C@@H]1[C@]32OO4 | Compound metabolized
* CCc1nc(N)nc(N)c1-c1ccc(Cl)cc1 | Compound NOT metabolized
* Nc1c2c(nc3ccccc13)CCCC2 | Compound NOT metabolized
* CS(=O)(=O)O.O.O.O.O=C1Cc2cc(CCN3CCN(c4nsc5ccccc45)CC3)c(Cl)cc2N1 [ZIPRASIDONE MESYLATE] | Compound NOT metabolized
* CNC(=C[N+](=O)[O-])NCCSCc1csc(CN(C)C)n1 | Compound NOT metabolized
* CN(C)C(=O)C(CCN1CCC(O)(c2ccc(Cl)cc2)CC1)(c1ccccc1)c1ccccc1 [LOPERAMIDE] | Compound metabolized
* CC(Oc1c(Cl)cccc1Cl)C1=NCCN1 (centres undefined) | Compound NOT metabolized
* N#Cc1ccc(C(c2ccc(C#N)cc2)n2cncn2)cc1 | Compound NOT metabolized
* CCCCCCOC(=O)/N=C(/N)c1ccc(NCc2nc3cc(C(=O)N(CCC(=O)OCC)c4ccccn4)ccc3n2C)cc1.CS(=O)(=O)O [DABIGATRAN ETEXILATE MESYLATE] | Compound NOT metabolized
* CN(C(=O)CN(CCO)CC(=O)N(C)C(C)(C)Cc1ccccc1)C(C)(C)Cc1ccccc1 | Compound metabolized
* Cc1ccccc1N1C(=O)c2cc(S(N)(=O)=O)c(Cl)cc2NC1C (centres undefined) | Compound NOT metabolized
* CC(C(=O)O)c1ccc2c(c1)Cc1cccnc1O2 (centres undefined) | Compound metabolized
* CCCc1nc(C(C)(C)O)c(C(=O)OCc2oc(=O)oc2C)n1Cc1ccc(-c2ccccc2-c2nnn[nH]2)cc1 | Compound metabolized
* Cc1cn([C@H]2C[C@H](N=[N+]=[N-])[C@@H](CO)O2)c(=O)[nH]c1=O | Compound NOT metabolized
* COc1ccccc1OCC(O)CN1CCN(CC(=O)Nc2c(C)cccc2C)CC1 (centres undefined) | Compound NOT metabolized
* O=C(O)COCCN1CCN(C(c2ccccc2)c2ccc(Cl)cc2)CC1 (centres undefined) | Compound metabolized
* O=C1NCC2(CCN(CCc3ccccc3)CC2)O1 [FENSPIRIDE] | Compound NOT metabolized
* COc1cc2c(c(OC)c1OC)-c1ccc(OC)c(=O)cc1[C@@H](NC(C)=O)CC2 | Compound NOT metabolized
* CNC(=C[N+](=O)[O-])NCCSCc1ccc(CN(C)C)o1 | Compound NOT metabolized
* CC(C)(C)NC[C@H](O)COc1ccccc1C1CCCC1.CC(C)(C)NC[C@H](O)COc1ccccc1C1CCCC1.O=S(=O)(O)O [PENBUTOLOL SULFATE] | Compound metabolized
* COc1c(C)c2c(c(O)c1C/C=C(\C)CCC(=O)OCCN1CCOCC1)C(=O)OC2 [MYCOPHENOLATE MOFETIL] | Compound metabolized
* CCCCCOC(=O)Nc1nc(=O)n([C@@H]2O[C@H](C)[C@@H](O)[C@H]2O)cc1F | Compound metabolized
* NC(=O)N1c2ccccc2CC(=O)c2ccccc21 [OXCARBAZEPINE] | Compound metabolized
* OC(CCN1CCCCC1)(c1ccccc1)C1CCCCC1 (centres undefined) | Compound metabolized
* CN(C)CCc1c[nH]c2ccc(Cn3cncn3)cc12.O=C(O)c1ccccc1 [RIZATRIPTAN BENZOATE] | Compound NOT metabolized
* COc1ccc2c3c1O[C@H]1C[C@@H](O)C=C[C@@]31CCN(C)C2 | Compound NOT metabolized
* C#C[C@]1(O)CC[C@H]2[C@@H]3CCC4=CC(=O)CC[C@@H]4[C@H]3CC[C@@]21CC | Compound metabolized
* OC(CCN1CCCCC1)(c1ccccc1)C1CC2C=CC1C2 (centres undefined) | Compound metabolized
* CCCCc1nc(Cl)c(CO)n1Cc1ccc(-c2ccccc2-c2nn[nH]n2)cc1 | Compound metabolized

* * *

- experiment: The drug is tested on Z-009 corresponding to pig gut metagenome with ENA study accession number: PRJEB37062 and ENA sample accession number: ERS12561809 for biotransformation under anaerobic condition. The drug concentrations were measured over 9 timepoints collected between 0 and 24 hours of incubation by liquid-chromatography-coupled mass spectrometry (LC–MS)
- assay conditions: 2 µM
reported endpoint: Bacterial Biotransformation

* CCCCCCOC(=O)/N=C(/N)c1ccc(NCc2nc3cc(C(=O)N(CCC(=O)OCC)c4ccccn4)ccc3n2C)cc1.CS(=O)(=O)O [DABIGATRAN ETEXILATE MESYLATE] | Compound NOT metabolized
* CCC(COC(=O)c1cc(OC)c(OC)c(OC)c1)(c1ccccc1)N(C)C.O=C(O)/C=C\C(=O)O (centres undefined) | Compound metabolized
* COc1ccc2[nH]c([S+]([O-])Cc3ncc(C)c(OC)c3C)nc2c1 (centres undefined) | Compound NOT metabolized
* CC(=O)CC(c1ccccc1)c1c(O)c2ccccc2oc1=O (centres undefined) | Compound metabolized
* CC(C)NCC(O)c1ccc(NS(C)(=O)=O)cc1 (centres undefined) | Compound NOT metabolized
* CN1CCc2c(c3ccccc3n2Cc2ccccc2)C1.CN1CCc2c(c3ccccc3n2Cc2ccccc2)C1.O=S(=O)(O)c1cccc2c(S(=O)(=O)O)cccc12 | Compound NOT metabolized
* Clc1ccc(Cn2c(CN3CCCC3)nc3ccccc32)cc1 | Compound NOT metabolized
* CN(C)CCc1c[nH]c2ccc(Cn3cncn3)cc12.O=C(O)c1ccccc1 [RIZATRIPTAN BENZOATE] | Compound NOT metabolized
* CCOc1ccc(NC(C)=O)cc1 | Compound NOT metabolized
* COc1cc2nc(N3CCN(C(=O)c4ccco4)CC3)nc(N)c2cc1OC | Compound NOT metabolized
* COC(=O)[C@H]1[C@H]2C[C@@H]3c4[nH]c5cc(OC)ccc5c4CCN3C[C@H]2C[C@@H](OC(=O)c2cc(OC)c(OC)c(OC)c2)[C@@H]1OC | Compound NOT metabolized
* CN/C(=N/CCSCc1nc[nH]c1C)NC#N | Compound NOT metabolized
* Nc1c2c(nc3ccccc13)CCCC2 | Compound NOT metabolized
* C=CCc1ccccc1OCC(O)CNC(C)C (centres undefined) | Compound NOT metabolized
* CCOC(=O)[C@H](CCc1ccccc1)N[C@@H](C)C(=O)N1[C@H](C(=O)O)C[C@H]2CCCC[C@@H]21 | Compound metabolized
* CO[C@]12C[C@@H](COC(=O)c3cncc(Br)c3)CN(C)[C@@H]1Cc1cn(C)c3cccc2c13 | Compound metabolized
* CCOC(=O)[C@H](CCc1ccccc1)N[C@@H](C)C(=O)N1[C@H](C(=O)O)C[C@@H]2CCC[C@@H]21 | Compound metabolized
* C[C@@H](CO)NC(=O)[C@@H]1C=C2c3cccc4[nH]cc(c34)C[C@H]2N(C)C1.O=C(O)/C=C\C(=O)O [ERGONOVINE MALEATE] | Compound NOT metabolized
* CCCCC(=O)N(Cc1ccc(-c2ccccc2-c2nnn[nH]2)cc1)[C@H](C(=O)O)C(C)C | Compound NOT metabolized
* CC(Oc1c(Cl)cccc1Cl)C1=NCCN1 (centres undefined) | Compound NOT metabolized
* CC(C)NCC(O)COc1ccc(CCOCC2CC2)cc1 (centres undefined) | Compound NOT metabolized
* COc1c(C)c2c(c(O)c1C/C=C(\C)CCC(=O)OCCN1CCOCC1)C(=O)OC2 [MYCOPHENOLATE MOFETIL] | Compound metabolized
* CC(C)OC(=O)C(C)(C)Oc1ccc(C(=O)c2ccc(Cl)cc2)cc1 [FENOFIBRATE] | Compound metabolized
* COc1ccc2c3c1O[C@H]1C[C@@H](O)C=C[C@@]31CCN(C)C2 | Compound NOT metabolized
* CC(C(=O)O)c1ccc2c(c1)Cc1cccnc1O2 (centres undefined) | Compound metabolized
* CCCc1nc(C(C)(C)O)c(C(=O)OCc2oc(=O)oc2C)n1Cc1ccc(-c2ccccc2-c2nnn[nH]2)cc1 | Compound metabolized
* O=C(O)CCc1nc(-c2ccccc2)c(-c2ccccc2)o1 | Compound NOT metabolized
* CN(C)CCC=C1c2ccccc2C=Cc2ccccc21 | Compound metabolized
* Cc1nc(-c2ccc(OCC(C)C)c(C#N)c2)sc1C(=O)O | Compound NOT metabolized
* CCN1CCCC1CNC(=O)c1cc(S(N)(=O)=O)ccc1OC (centres undefined) [SULPIRIDE] | Compound metabolized
* CN1CCC(=C2c3ccccc3CCc3cccnc32)CC1.O=C(O)/C=C\C(=O)O.O=C(O)/C=C\C(=O)O [AZATADINE MALEATE] | Compound NOT metabolized
* OC(Cn1cncn1)(Cn1cncn1)c1ccc(F)cc1F | Compound NOT metabolized
* NC(CO)(CO)CO.O=C(c1ccccc1)c1ccc2n1CCC2C(=O)O (centres undefined) | Compound NOT metabolized
* O=c1n(CCCN2CCN(c3cccc(Cl)c3)CC2)nc2ccccn12 | Compound NOT metabolized
